tested-on: T1, monkey CD22 protein (ACROBiosystems, catalog number SI2-R52Ha) (monkey, UniProt F6W485 20-688)
T1 construct: commercial protein; also called monkey CD22-ECD; monkey CD22-ECD-His
T1 sequence: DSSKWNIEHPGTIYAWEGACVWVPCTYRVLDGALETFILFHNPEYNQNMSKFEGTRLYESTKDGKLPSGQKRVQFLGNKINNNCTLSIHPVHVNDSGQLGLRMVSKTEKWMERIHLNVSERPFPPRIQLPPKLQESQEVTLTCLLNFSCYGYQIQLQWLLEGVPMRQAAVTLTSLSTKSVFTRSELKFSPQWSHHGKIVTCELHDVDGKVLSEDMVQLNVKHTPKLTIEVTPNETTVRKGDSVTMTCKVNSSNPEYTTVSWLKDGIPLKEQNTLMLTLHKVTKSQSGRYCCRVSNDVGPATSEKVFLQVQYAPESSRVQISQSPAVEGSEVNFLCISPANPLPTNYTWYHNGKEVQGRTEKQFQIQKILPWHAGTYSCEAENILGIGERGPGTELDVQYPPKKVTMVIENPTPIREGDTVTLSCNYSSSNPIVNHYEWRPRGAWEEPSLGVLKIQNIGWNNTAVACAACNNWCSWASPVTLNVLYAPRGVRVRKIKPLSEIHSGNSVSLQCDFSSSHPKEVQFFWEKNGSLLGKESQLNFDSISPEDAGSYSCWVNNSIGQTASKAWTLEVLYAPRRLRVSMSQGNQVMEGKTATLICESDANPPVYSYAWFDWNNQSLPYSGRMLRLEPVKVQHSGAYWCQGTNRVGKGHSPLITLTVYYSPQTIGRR
experiment: ELISA, coated monkey CD22 protein, antibody 0.01 nM

{"binder": "F1.120.15 (antibody, human IgG1, kappa, V domains shown, human-murine chimeric IgG1 kappa) VH: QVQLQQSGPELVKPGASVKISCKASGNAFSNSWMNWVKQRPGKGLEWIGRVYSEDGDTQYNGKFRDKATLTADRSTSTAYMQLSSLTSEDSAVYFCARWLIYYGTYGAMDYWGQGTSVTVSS VL: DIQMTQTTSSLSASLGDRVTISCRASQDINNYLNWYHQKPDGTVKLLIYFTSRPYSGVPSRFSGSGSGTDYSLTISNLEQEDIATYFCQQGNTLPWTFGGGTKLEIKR", "unit-string": "OD450", "OD450": 0.65}
